This collection of values is drawn from patent EP3085709A1.

Target: T1, monkey RANKL (cynomolgus monkey, R & D Systems) (cynomolgus monkey, UniProt A0A7N9DBU4 140-317)
T1 construct: also called cynomolgus monkey RANKL
T1 sequence: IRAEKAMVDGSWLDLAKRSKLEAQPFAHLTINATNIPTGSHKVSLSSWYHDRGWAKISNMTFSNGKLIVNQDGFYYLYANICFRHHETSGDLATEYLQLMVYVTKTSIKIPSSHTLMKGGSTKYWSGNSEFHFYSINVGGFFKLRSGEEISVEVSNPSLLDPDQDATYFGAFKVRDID
Assay: direct ELISA, monkey RANKL coated
MEASURED METRIC: EC50 (ng/mL)
Give a bare numeral; the unit ng/mL is implied.

Provide one value: measured EC50 of 114-5.9.4 (antibody, V domains shown, Murine monoclonal antibody from hybridoma) VH: EVQLQQSGAELVKPGASVKLSCTASGFNLKGTYIHWVKQRPGQGLEWIGRIDPANANTKYDPKFQGKATIRTDTSSNTAYLQLSSLTSEDTAVYFCSSPSGHYDVWFAYWGQGTLVTVSP VL: DIQMTQPTSSLSASLGDTVTISCSASQDISNYLNWYQQKPDGTLKLLIYYTSSLHSGVPSRFSGSGSGTDYSLTISNLEPEDIATYYCQQFSKLPLTFGAGTKLELKR
9.67
